target: T1, recombinant human CD3ε/δ heterodimer SEED Fc fusion protein (human, UniProt P07766 23-126; P04234 22-105); assay: biolayer interferometry, TCE immobilized
T1 construct: not shown: SEED Fc arm, not specified
T1 sequence (P07766 23-126, stated change not applied, chain 1 of 2): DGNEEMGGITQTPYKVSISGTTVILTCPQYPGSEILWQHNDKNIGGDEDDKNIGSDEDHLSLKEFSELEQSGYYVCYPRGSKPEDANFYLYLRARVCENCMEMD
T1 sequence (P04234 22-105, stated change not applied, chain 2 of 2): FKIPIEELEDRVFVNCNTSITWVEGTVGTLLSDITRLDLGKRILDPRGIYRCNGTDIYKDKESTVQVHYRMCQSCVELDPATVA
pKd: −log10 of the molar value.
Each entry below lists one item and its recorded pKd value.
RECORDED_ENDPOINT: pKd

1) 1F3.5 VL1.01-VH1.00 (CD3-binding bispecific TCE of Table 30) (bispecific antibody, V domains shown, CD3 Fab arm only; VH1.00 read as the parental 1F3.5 heavy chain) VH: EVQLVESGGGLVQPGGSLRLSCAASGFTFNTYAMNWVRQAPGKGLEWVARIRSKYNNYATYYADSVKDRFTISRDDSKNTLYLQMNSLRAEDTAVYYCVRHGNFGNSYVSWFAYWGQGTMVTVSS VL: QTVVTQEPSLTVSPGGTVTLTCASSTGAVTTSNYANWVQQKPGQAPRALIGGTNKRAPGTPARFSGSLLGGKAALTLSGVQPEDEAEYYCALWYSNLWVFGGGTKLTVLG = 7.21
2) 1F3.5 VL1.00-VH1.05 (CD3-binding bispecific TCE of Table 30) (bispecific antibody, V domains shown, CD3 Fab arm only; VL1.00 read as the parental 1F3.5 light chain) VH: EVQLVESGGGLVQPGGSLKLSCAASGFTFNTYAMNWVRQASGKGLEWVGRIRSKYNNYATYYADSVKGRFTISRDDSKNTAYLQMNSLKTEDTAVYYCVRHGNFGNAYVSFAYWGQGTMVTVSS VL: QAVVTQEPSLTVSPGGTVTLTCRSSTGAVTTSNYANWVQQKPGQAPRGLIGGTNKRAPGTPARFSGSLLGGKAALTLSGVQPEDEAEYYCALWYSNLWVFGGGTKLTVLG = 8.09
3) 1F3.5 VL1.00-VH1.02 (CD3-binding bispecific TCE of Table 30) (bispecific antibody, V domains shown, CD3 Fab arm only; VL1.00 read as the parental 1F3.5 light chain) VH: EVQLVESGGGLVQPGGSLKLSCAASGFTFNTYAMNWVRQASGKGLEWVGRIRSKYNNYATYYADSVKGRFTISRDDSKNTAYLQMNSLKTEDTAVYYCVRHGNFGNSYVSWFAYWGQGTMVTVSS VL: QAVVTQEPSLTVSPGGTVTLTCRSSTGAVTTSNYANWVQQKPGQAPRGLIGGTNKRAPGTPARFSGSLLGGKAALTLSGVQPEDEAEYYCALWYSNLWVFGGGTKLTVLG = 8.26
